# System: PXR:RXRa (NR concentration 270 nM, RXRa partner concentration 90 nM)
# PROTOCOL_DESCRIPTION: PBM binding z-score (relative to random genomic background probes); higher = stronger binding; sequences stand for … in GC…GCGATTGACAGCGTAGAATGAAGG

SEQUENCE_ENTRY	PBM binding z-score
GGAACGAGGGCATTCGAGTTGATACCATGGCGAT	4.1
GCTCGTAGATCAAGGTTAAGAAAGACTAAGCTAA	0.125
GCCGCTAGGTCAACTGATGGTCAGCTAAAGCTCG	1.55

* * *

# Tested on: PPARg:RXRa 30nM:10nM, anti-RXR (NR concentration 30 nM, RXRa partner concentration 10 nM)
# PROTOCOL_DESCRIPTION: PBM binding z-score (relative to random genomic background probes); higher = stronger binding; sequences stand for … in GC…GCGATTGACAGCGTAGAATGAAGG
METRIC: PBM binding z-score

SEQUENCE_ENTRY	TARGET_ENTITY	ENDPOINT_VALUE
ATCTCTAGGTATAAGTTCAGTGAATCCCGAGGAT	PPARg:RXRa 30nM:10nM, anti-RXR (NR concentration 30 nM, RXRa partner concentration 10 nM)	2.94
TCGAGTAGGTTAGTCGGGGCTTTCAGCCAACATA	PPARg:RXRa 30nM:10nM, anti-RXR (NR concentration 30 nM, RXRa partner concentration 10 nM)	0.909
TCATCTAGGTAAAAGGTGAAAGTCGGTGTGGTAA	PPARg:RXRa 30nM:10nM, anti-RXR (NR concentration 30 nM, RXRa partner concentration 10 nM)	8.75
GCAGATAGGTGAAACGCAGGTAACTCAGGGTGGC	PPARg:RXRa 30nM:10nM, anti-RXR (NR concentration 30 nM, RXRa partner concentration 10 nM)	-0.496
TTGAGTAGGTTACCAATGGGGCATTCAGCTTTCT	PPARg:RXRa 30nM:10nM, anti-RXR (NR concentration 30 nM, RXRa partner concentration 10 nM)	1.01
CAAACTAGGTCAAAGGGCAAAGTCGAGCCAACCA	PPARg:RXRa 30nM:10nM, anti-RXR (NR concentration 30 nM, RXRa partner concentration 10 nM)	11
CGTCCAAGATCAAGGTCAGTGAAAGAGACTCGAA	PPARg:RXRa 30nM:10nM, anti-RXR (NR concentration 30 nM, RXRa partner concentration 10 nM)	0.0233
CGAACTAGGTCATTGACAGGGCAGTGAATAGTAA	PPARg:RXRa 30nM:10nM, anti-RXR (NR concentration 30 nM, RXRa partner concentration 10 nM)	3.75
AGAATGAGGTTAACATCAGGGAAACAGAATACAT	PPARg:RXRa 30nM:10nM, anti-RXR (NR concentration 30 nM, RXRa partner concentration 10 nM)	1.39

* * *

# System: PPARg:RXRa 30nM:10nM, anti-RXR (NR concentration 30 nM, RXRa partner concentration 10 nM)
# PROTOCOL_DESCRIPTION: PBM binding z-score (relative to random genomic background probes); higher = stronger binding; sequences stand for … in GC…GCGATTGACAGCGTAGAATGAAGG
Let's look at some sequences and their measured PBM binding z-score.
METRIC: PBM binding z-score

SEQUENCE_ENTRY	ENDPOINT_VALUE
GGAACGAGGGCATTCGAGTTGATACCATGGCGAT	-0.156
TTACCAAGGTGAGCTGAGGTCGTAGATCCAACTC	-0.191
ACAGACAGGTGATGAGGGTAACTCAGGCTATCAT	0.142
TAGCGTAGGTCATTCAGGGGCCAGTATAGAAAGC	0.626
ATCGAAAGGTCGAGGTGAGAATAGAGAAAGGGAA	1.56
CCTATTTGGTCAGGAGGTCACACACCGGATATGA	1.66
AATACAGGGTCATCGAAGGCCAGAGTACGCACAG	2.56
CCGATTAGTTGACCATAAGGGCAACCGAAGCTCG	-0.22
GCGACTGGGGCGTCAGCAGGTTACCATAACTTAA	-0.842
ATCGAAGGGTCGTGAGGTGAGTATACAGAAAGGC	0.78
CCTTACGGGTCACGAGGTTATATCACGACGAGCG	3.62
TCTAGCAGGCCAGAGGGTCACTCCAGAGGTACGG	1.72

* * *

# Tested on: VDR homodimer (NR concentration 270 nM)
# PROTOCOL_DESCRIPTION: PBM binding z-score (relative to random genomic background probes); higher = stronger binding; sequences stand for … in GC…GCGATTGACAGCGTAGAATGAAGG

SEQUENCE_ENTRY	PBM binding z-score
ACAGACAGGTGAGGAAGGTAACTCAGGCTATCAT	-0.55
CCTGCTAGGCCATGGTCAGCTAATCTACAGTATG	-0.711
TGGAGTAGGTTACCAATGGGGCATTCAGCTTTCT	-0.00533
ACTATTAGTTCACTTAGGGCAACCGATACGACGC	2.32
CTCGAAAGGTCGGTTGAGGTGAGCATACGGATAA	0.64
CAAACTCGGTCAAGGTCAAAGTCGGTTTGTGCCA	4.43
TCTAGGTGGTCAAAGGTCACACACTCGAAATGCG	2.4
AATCGGAGGACAAAGGTCAGAGCTACGCCAGTGA	1.36
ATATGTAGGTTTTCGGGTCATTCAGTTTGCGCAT	4.55
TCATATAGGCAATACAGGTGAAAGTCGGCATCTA	-0.277
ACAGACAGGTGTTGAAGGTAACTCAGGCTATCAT	-0.587
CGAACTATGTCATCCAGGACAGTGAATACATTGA	0.592
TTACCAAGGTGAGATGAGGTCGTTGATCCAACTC	2.31
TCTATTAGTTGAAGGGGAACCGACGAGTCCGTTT	1.61
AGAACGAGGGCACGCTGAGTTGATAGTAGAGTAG	1.95
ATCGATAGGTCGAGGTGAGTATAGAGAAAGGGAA	-0.206
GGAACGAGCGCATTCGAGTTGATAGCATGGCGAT	-0.406
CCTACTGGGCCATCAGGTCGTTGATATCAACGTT	0.424
TGAATGAGGTTAAAGATCAGGGATCGTGGCGTCG	-0.0606
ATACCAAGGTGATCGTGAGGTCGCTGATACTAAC	1.6
CCTACTGCGCCATTCAGAGGTCATTGATCATATG	3.47
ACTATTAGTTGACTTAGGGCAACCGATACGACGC	0.121
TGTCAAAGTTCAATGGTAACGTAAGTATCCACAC	3.52
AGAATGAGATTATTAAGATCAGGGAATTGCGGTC	-0.308
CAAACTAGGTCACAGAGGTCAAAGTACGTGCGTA	6.77
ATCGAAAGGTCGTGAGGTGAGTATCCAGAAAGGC	0.852
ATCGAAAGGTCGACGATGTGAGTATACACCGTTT	0.438
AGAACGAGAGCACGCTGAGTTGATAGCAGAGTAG	-0.355
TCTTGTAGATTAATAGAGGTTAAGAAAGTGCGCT	0.699
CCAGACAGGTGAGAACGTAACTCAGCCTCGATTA	0.202
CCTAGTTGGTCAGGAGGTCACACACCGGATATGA	2.82

* * *

Let's look at some sequences and their measured PBM binding z-score.
# System: PPARg homodimer (NR concentration 180 nM)
# PROTOCOL_DESCRIPTION: PBM binding z-score (relative to random genomic background probes); higher = stronger binding; sequences stand for … in GC…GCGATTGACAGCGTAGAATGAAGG

SEQUENCE_ENTRY	TARGET_ENTITY	PBM binding z-score
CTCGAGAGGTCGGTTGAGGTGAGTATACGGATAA	PPARg homodimer (NR concentration 180 nM)	0.728
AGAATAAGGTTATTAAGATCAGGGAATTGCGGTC	PPARg homodimer (NR concentration 180 nM)	1.04
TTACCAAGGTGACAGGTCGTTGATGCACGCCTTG	PPARg homodimer (NR concentration 180 nM)	1.64
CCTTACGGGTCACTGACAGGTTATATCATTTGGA	PPARg homodimer (NR concentration 180 nM)	2.85
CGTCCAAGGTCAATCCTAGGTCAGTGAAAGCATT	PPARg homodimer (NR concentration 180 nM)	6.19
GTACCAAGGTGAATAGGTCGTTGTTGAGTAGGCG	PPARg homodimer (NR concentration 180 nM)	1.31
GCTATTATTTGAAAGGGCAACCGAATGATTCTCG	PPARg homodimer (NR concentration 180 nM)	1.8
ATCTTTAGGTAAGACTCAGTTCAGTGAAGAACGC	PPARg homodimer (NR concentration 180 nM)	0.751
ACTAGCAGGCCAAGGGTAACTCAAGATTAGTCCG	PPARg homodimer (NR concentration 180 nM)	0.663
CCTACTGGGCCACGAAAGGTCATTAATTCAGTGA	PPARg homodimer (NR concentration 180 nM)	3.46
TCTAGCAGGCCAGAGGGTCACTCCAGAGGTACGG	PPARg homodimer (NR concentration 180 nM)	0.69
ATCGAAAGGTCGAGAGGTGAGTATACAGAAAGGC	PPARg homodimer (NR concentration 180 nM)	2.03
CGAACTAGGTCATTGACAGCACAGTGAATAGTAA	PPARg homodimer (NR concentration 180 nM)	1.52
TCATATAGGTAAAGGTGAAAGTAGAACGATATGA	PPARg homodimer (NR concentration 180 nM)	1.55
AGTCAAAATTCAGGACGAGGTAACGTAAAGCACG	PPARg homodimer (NR concentration 180 nM)	0.59
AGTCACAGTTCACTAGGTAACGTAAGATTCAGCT	PPARg homodimer (NR concentration 180 nM)	1.05
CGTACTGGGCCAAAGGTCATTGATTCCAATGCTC	PPARg homodimer (NR concentration 180 nM)	4.18
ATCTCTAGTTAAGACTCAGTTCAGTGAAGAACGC	PPARg homodimer (NR concentration 180 nM)	1.07
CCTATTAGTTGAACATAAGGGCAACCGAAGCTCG	PPARg homodimer (NR concentration 180 nM)	1.56
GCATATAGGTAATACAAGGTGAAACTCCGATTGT	PPARg homodimer (NR concentration 180 nM)	0.705
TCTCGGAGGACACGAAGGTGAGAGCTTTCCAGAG	PPARg homodimer (NR concentration 180 nM)	-0.651
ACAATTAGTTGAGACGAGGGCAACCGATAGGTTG	PPARg homodimer (NR concentration 180 nM)	0.566
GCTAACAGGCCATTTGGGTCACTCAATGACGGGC	PPARg homodimer (NR concentration 180 nM)	0.24
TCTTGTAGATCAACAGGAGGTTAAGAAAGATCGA	PPARg homodimer (NR concentration 180 nM)	0.0227
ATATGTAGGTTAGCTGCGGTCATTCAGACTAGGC	PPARg homodimer (NR concentration 180 nM)	0.698
AGTCAAAGTTCAGGACTAGGTAACGTAAAGCACG	PPARg homodimer (NR concentration 180 nM)	1.73
ACTCGGAGGAAAAAGGTCAGAGCTACGCCAGTGA	PPARg homodimer (NR concentration 180 nM)	1.74
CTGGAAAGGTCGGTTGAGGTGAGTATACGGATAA	PPARg homodimer (NR concentration 180 nM)	0.799
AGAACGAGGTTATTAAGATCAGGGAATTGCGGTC	PPARg homodimer (NR concentration 180 nM)	0.237
